target.or.system: human CD33 N20W (human, UniProt P20138 18-364)
Sequence (P20138 18-364 N20W limits assumed): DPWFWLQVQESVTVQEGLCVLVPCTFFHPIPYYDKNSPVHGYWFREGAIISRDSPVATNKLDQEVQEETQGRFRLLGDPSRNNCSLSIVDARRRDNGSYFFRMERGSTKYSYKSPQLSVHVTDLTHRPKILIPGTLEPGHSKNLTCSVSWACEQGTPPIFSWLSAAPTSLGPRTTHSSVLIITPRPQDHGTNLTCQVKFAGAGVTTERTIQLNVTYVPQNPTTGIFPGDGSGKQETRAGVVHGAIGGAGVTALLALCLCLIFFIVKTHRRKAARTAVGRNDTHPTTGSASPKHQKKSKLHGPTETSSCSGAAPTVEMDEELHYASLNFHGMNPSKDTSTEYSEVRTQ
assay: flow cytometry, mutant on cells, IgG
Would you kindly list Mean % WT Binding for each of these binders?
State just the number; it will be interpreted in % WT binding.

Sample Refmab #4 (antibody, human IgG1, V domains shown, Tested in IgG format; human IgG1 Fc silent (PG-LALA)) VH: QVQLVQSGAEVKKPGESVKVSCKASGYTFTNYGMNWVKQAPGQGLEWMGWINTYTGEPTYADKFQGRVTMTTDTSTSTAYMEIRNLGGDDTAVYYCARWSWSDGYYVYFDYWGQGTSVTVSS VL: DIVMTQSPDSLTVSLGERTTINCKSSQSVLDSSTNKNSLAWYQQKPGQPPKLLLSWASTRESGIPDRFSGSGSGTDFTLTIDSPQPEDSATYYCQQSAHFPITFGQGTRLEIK — what was its Mean % WT Binding?
52.1

# repeat for Refmab #1 (antibody, human IgG1, V domains shown, Tested in IgG format; human IgG1 (Absolute Antibody hP67.6, Cat. No. Ab00283-10.0); also called hP67.6) VH: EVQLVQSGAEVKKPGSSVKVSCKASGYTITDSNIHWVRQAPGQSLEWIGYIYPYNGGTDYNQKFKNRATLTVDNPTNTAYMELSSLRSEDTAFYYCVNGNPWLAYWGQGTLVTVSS VL: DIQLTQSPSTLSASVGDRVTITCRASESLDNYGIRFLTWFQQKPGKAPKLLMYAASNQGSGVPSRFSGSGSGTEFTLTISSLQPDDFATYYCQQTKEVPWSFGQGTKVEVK
0.6

Same question, Refmab #3 (antibody, human IgG1, V domains shown, Tested in IgG format; human IgG1 Fc silent (PG-LALA)) VH: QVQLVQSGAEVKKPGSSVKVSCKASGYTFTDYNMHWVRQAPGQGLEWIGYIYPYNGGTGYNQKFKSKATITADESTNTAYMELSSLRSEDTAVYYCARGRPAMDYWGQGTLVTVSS VL: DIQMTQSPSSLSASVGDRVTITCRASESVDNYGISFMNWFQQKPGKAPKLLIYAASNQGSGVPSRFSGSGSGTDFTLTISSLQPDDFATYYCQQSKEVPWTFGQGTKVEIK this time
0.7

Same for Refmab #2 (antibody, human IgG1, V domains shown, Tested in IgG format; human IgG1 Fc silent (PG-LALA)) VH: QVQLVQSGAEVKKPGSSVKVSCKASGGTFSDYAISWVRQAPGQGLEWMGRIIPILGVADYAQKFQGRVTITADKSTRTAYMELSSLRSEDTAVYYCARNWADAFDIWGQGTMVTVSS VL: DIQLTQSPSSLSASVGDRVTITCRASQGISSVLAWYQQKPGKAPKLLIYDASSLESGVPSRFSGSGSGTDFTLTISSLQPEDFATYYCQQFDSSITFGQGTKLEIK
61.2
